TESTED TARGET: JAK1 (recombinant purified GST-tagged catalytic domain) (Homo sapiens (Human), UniProt P23458);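 also: biochemical assay with HTRF read-out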
Sequence (P23458 875-1153): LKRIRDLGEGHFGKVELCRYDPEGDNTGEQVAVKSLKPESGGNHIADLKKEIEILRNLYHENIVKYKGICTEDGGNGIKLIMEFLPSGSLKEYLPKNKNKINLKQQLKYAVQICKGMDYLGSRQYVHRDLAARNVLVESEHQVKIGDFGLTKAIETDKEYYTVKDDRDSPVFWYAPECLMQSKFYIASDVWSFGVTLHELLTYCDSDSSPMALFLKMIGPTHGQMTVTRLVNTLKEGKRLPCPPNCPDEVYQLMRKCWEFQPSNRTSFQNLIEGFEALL
pIC50: −log10 of the molar value.
Answer f if pIC50 is under 7, and t if it is 7 or more.

Check this compound for pIC50 at or above 7: COCCN[C@H]1CCC(n2cc(C(N)=O)c(Nc3ccc(S(=O)(=O)C(F)(F)F)cc3)n2)[C@@H](C#N)C1 (stereo partly drawn) [Example 27-16]
t

And for CN(C)[C@H]1CC[C@H](C#N)[C@@H](n2cc(C(N)=O)c(Nc3ccc(F)cc3)n2)C1 (mixture of isomers) [Example 6-1] ?
f

And for CC1(C)CC[C@@H](C#N)[C@@H](n2cc(C(N)=O)c(Nc3ccccc3)n2)C1 (mixture of isomers) [Example 11-2] ?
t

And for N#C[C@H]1C[C@H](O)CC[C@@H]1n1cc(C(N)=O)c(Nc2ccc(C(F)(F)F)cc2)n1 (single isomer, unassigned) [Example 25-24] ?
t

And for CC1(C)CN(C(=O)[C@@H]2CC[C@@H](n3cc(C(N)=O)c(Nc4ccc(Cl)cc4)n3)[C@H](C#N)C2)C1 (single isomer, unassigned) [Example 35-2] ?
t

And for CN[C@@H]1CC[C@H](C#N)[C@@H](n2cc(C(N)=O)c(Nc3ccc(F)cc3)n2)C1 (mixture of isomers) [Example 6-3] ?
f

And for CC1(N[C@H]2CCC(n3cc(C(N)=O)c(Nc4ccc(Cl)cc4)n3)[C@@H](C#N)C2)CC1 (single isomer, unassigned) [Example 28-205] ?
t

And for N#C[C@@H]1CCC2(C[C@H]1n1cc(C(N)=O)c(Nc3ccccc3)n1)OCCO2 (single isomer, unassigned) [Example 45-1] ?
t

And for N#C[C@H]1CCC[C@@H]1n1cc(C(N)=O)c(Nc2ccccc2)n1 (mixture of isomers) [Example 1-2] ?
t

And for N#CC1CCC2(CC1n1cc(C(N)=O)c(Nc3ccccc3)n1)OCCO2 (stereo not drawn) [Example 2-3] ?
t

And for CC[N+]1([C@H]2CC[C@H](n3cc(C(N)=O)c(Nc4ccc(Cl)cc4)n3)[C@@H](C#N)C2)CCC1 [Example 31-3] ?
t

And for N#C[C@H]1CC(F)CC[C@@H]1n1cc(C(N)=O)c(Nc2ccccc2)n1 (mixture of isomers) [Example 22-1] ?
t

And for CC1(C)C[N+](C)([C@H]2CC[C@H](n3cc(C(N)=O)c(Nc4ccc(Cl)cc4)n3)[C@@H](C#N)C2)C1 [Example 31-4] ?
t

And for CC(C)(C)OC(=O)C1CC[C@@H](C#N)[C@@H](n2cc(C(N)=O)c(Nc3ccccc3)n2)C1 (mixture of isomers) [Example 12-2] ?
f
